# collection of Ki values tested on Adenosine receptor A2a (Rattus norvegicus)
MEASURED_QUANTITY: Ki (µM)

1 = CCn1c(/C=C/c2ccc(Br)cc2)nc2c1c(=O)n(C)c(=O)n2C
2 = CCn1c(=O)c2c(nc(/C=C/c3cccc(C(F)(F)F)c3)n2C)n(CC)c1=O
Inquiry: Please let me know which one, 1 or 2 , has a lower measured Ki value. Could you answer with the label of the item you picked?
Reply text: 2
(2: 0.0119 µM, 1: 0.546 µM)

###

# collection of Ki values tested on Adenosine receptor A2a (Rattus norvegicus, UniProt P30543)
# Sequence (P30543 whole entry): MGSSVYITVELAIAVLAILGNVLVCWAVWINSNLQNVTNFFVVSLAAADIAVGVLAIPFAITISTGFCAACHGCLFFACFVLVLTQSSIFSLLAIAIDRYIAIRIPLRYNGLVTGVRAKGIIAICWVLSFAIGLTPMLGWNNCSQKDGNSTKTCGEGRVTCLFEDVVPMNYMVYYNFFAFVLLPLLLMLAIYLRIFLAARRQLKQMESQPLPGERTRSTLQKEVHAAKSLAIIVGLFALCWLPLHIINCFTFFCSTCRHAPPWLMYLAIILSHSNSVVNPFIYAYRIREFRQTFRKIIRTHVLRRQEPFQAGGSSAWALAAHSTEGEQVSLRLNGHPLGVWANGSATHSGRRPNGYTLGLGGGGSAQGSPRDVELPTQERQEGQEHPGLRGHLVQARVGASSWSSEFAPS
MEASURED_QUANTITY: Ki (nM)

>>> meas_value("CCn1c(=O)c2c(nc(/C=C/c3ccc(Cl)c(Cl)c3)n2CC)n(CC)c1=O")
428
>>> meas_value("Cn1c(=O)c2c(nc(/C=C/c3ccc(Cl)c(Cl)c3)n2C)n(C)c1=O [(E)-8-(3,4-Dichlorostyryl)caffeine (4b)]")
44.8

a = CCn1c(=O)c2c(nc(/C=C/c3ccc(Br)cc3)n2C)n(CC)c1=O
b = CCn1c(/C=C/c2cccc(Br)c2)nc2c1c(=O)n(C)c(=O)n2C
c = CCn1c(/C=C/c2cccc(Cl)c2)nc2c1c(=O)n(C)c(=O)n2C
d = Cn1c(=O)c2c(nc(/C=C/c3ccc(Br)cc3)n2C)n(C)c1=O
Inquiry: Ascending sort, Ki. Please respond by ranking the labels in the order requested.
Reply text: a, b, d, c

###

# collection of pKi values tested on Adenosine receptor A2a (Rattus norvegicus, UniProt P30543)
pKi: −log10 of the molar value.
MEASURED_QUANTITY: pKi

P = CCn1c(/C=C/c2cccc(C(F)(F)F)c2)nc2c1c(=O)n(C)c(=O)n2C
Q = CCn1c(=O)c2c(nc(/C=C/c3cccc(Br)c3)n2C)n(CC)c1=O
Inquiry: Please let me know which one, P or Q , has a lower measured pKi value. Could you answer with the label of the item you picked?
Reply text: P

###

# collection of Ki values tested on Adenosine receptor A2a (Rattus norvegicus)

>>> meas_value("CCn1c(=O)c2c(nc(/C=C/c3cccc(Cl)c3)n2CC)n(CC)c1=O")
"> 1 µM"
>>> meas_value("CCn1c(=O)c2c(nc(COc3ccccc3)n2CC)n(CC)c1=O")
"> 1 µM"

--- query ---
Inquiry: Requested read-out Ki, target or system Adenosine receptor A2a (Rattus norvegicus), entry CCn1c(CCCc2ccccc2)nc2c1c(=O)n(C)c(=O)n2C
Reply text: > 1 µM
